src = patent US20250281424A1

Biological target: human PF4 (Homo sapiens)
Construct: PF4 is a 70 amino acid, lysine-rich 7.8 kDa platelet-specific protein; made in house; host or cells: Escherichia coli BL21DE3 pLysS (pT7-7) and/or Drosophila S2 cells
Assay: Inhibition of PF4 tetramer formation (BS3 cross-linking, SDS-PAGE)
Type: biochemical
Conditions: 1 μM inhibitor; read-out: % inhibition of PF4 tetramer formation at single concentration of inhibitor
Please mark Condition met if the recorded inhibition at 1 µM is equal to or greater than 20%, and Condition not met if it falls below.

Take a look at these entries with their results.
{"columns": ["molecule", "className"],
 "data": [
  ["CC(C)[C@@H](N)C(=O)C1C(=O)c2ccc(C(=O)c3ccc4c(c3)C(=O)C(C(=O)[C@H](N)C(C)C)C4=O)cc2C1=O (stereo partly drawn)", "Condition met"],
  ["CC(C)(C)OC(=O)N1CCCC[C@@H]1C(=O)C1C(=O)c2ccc(C(=O)c3ccc4c(c3)C(=O)C(C(=O)[C@H]3CCCCN3C(=O)OC(C)(C)C)C4=O)cc2C1=O (stereo partly drawn)", "Condition not met"],
  ["COCCOCCNCC(=O)C1C(=O)c2ccc(C(=O)c3ccc4c(c3)C(=O)C(C(=O)CNCCOCCOC)C4=O)cc2C1=O (stereo not drawn)", "Condition not met"],
  ["CC(C)(C)OC(=O)N1CCCC[C@@H]1C(=O)C1C(=O)c2ccc(Oc3ccc4c(c3)C(=O)C(C(=O)[C@H]3CCCCN3C(=O)OC(C)(C)C)C4=O)cc2C1=O (stereo partly drawn)", "Condition met"],
  ["C[C@H](NC(=O)C1C(=O)c2ccc(S(=O)(=O)c3ccc4c(c3)C(=O)C(C(=O)N[C@@H](C)C(=O)O)C4=O)cc2C1=O)C(=O)O (stereo partly drawn)", "Condition not met"]
]}

Turning to the following molecule.
## Input Dear colleague, could you confirm whether CS(=O)(=O)N1CCC(NC(=O)C2C(=O)c3ccc(Oc4ccc5c(c4)C(=O)C(C(=O)NC4CCN(S(C)(=O)=O)CC4)C5=O)cc3C2=O)CC1 (stereo not drawn) has inhibition at 1 µM at or above 20%?
## Output Condition not met

* * *

Target: human PF4 (Homo sapiens, UniProt P02776)
Construct: PF4 is a 70 amino acid, lysine-rich 7.8 kDa platelet-specific protein; made in house; host or cells: Escherichia coli BL21DE3 pLysS (pT7-7) and/or Drosophila S2 cells
Sequence (P02776 32-101): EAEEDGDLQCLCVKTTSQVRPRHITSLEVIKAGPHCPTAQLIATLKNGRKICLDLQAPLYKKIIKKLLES
Assay: Inhibition of PF4 tetramer formation (BS3 cross-linking, SDS-PAGE)
Format: biochemical
Conditions: 10 μM inhibitor (column A); read-out: % inhibition of PF4 tetramer formation at single concentration of inhibitor
endpoint: inhibition at 10 µM (%)
Write the number in % without appending the unit.

Previously resolved entries follow.
{"columns": ["molecule", "measureUnit", "inhibition at 10 µM"],
 "data": [
  ["CC(C)(C)OC(=O)N1CCCC[C@H]1C(=O)C1C(=O)c2ccc(-c3ccc4c(c3)C(=O)C(C(=O)[C@@H]3CCCCN3C(=O)OC(C)(C)C)C4=O)cc2C1=O (stereo partly drawn)", "%", 88],
  ["COC(=O)N1CCC[C@H]1C(=O)C1C(=O)c2ccc(C(=O)c3ccc4c(c3)C(=O)C(C(=O)[C@@H]3CCCN3C(=O)OC)C4=O)cc2C1=O (stereo partly drawn)", "%", 91],
  ["O=C(O)CNC(=O)C1C(=O)c2ccc(S(=O)(=O)c3ccc4c(c3)C(=O)C(C(=O)NCC(=O)O)C4=O)cc2C1=O (stereo not drawn)", "%", 73],
  ["CC[C@H](NC(=O)OCc1ccccc1)C(=O)C1C(=O)c2ccc(C(=O)c3ccc4c(c3)C(=O)C(C(=O)[C@H](CC)NC(=O)OCc3ccccc3)C4=O)cc2C1=O (stereo partly drawn)", "%", 75],
  ["O=C(CC1CCCCC1)C1C(=O)c2ccc(S(=O)(=O)c3ccc4c(c3)C(=O)C(C(=O)CC3CCCCC3)C4=O)cc2C1=O (stereo not drawn)", "%", 90]
]}

Now take the following molecule into account.
## Input Entry O=C(NCCc1ccccc1)C1C(=O)c2ccc(S(=O)(=O)c3ccc4c(c3)C(=O)C(C(=O)NCCc3ccccc3)C4=O)cc2C1=O (stereo not drawn) : reported inhibition at 10 µM = ?
## Output 76

* * *

Target: human PF4 (Homo sapiens)
Construct: PF4 is a 70 amino acid, lysine-rich 7.8 kDa platelet-specific protein; made in house; host or cells: Escherichia coli BL21DE3 pLysS (pT7-7) and/or Drosophila S2 cells
Experiment: Inhibition of PF4 tetramer formation (BS3 cross-linking, SDS-PAGE)
Type: biochemical
Conditions: read-out: IC50 of PF4 tetramer formation inhibition
pIC50: −log10 of the molar value.
Please mark Fulfilled if the recorded pIC50 is equal to or greater than 5, and Not fulfilled if it falls below.

Take a look at these entries with their results.
{"columns": ["compound", "target", "className"],
 "data": [
  ["COC(=O)[C@@H]1C[C@H]1C(=O)C1C(=O)c2ccc(S(=O)(=O)c3ccc4c(c3)C(=O)C(C(=O)[C@@H]3C[C@H]3C(=O)OC)C4=O)cc2C1=O (stereo partly drawn) [Example 218]", "human PF4 (Homo sapiens)", "Fulfilled"],
  ["COCCCNC(=O)C1C(=O)c2ccc(C(=O)c3ccc4c(c3)C(=O)C(C(=O)NCCCOC)C4=O)cc2C1=O (stereo not drawn) [Example 88]", "human PF4 (Homo sapiens)", "Not fulfilled"],
  ["O=C(c1ccc2c(c1)C(=O)C(C(=O)Nc1ccccc1)C2=O)c1ccc2c(c1)C(=O)C(C(=O)Nc1ccccc1)C2=O (stereo not drawn) [Example 14]", "human PF4 (Homo sapiens)", "Fulfilled"],
  ["COCC(=O)C1C(=O)c2ccc(Oc3ccc4c(c3)C(=O)C(C(=O)COC)C4=O)cc2C1=O (stereo not drawn) [Example 249]", "human PF4 (Homo sapiens)", "Fulfilled"]
]}

Turning to the following compound.
## Input Dear colleague, could you confirm whether O=C(c1ccc2c(c1)C(=O)C(C(=O)Nc1cc(Cl)nc(Cl)c1)C2=O)c1ccc2c(c1)C(=O)C(C(=O)Nc1cc(Cl)nc(Cl)c1)C2=O (stereo not drawn) [Example 17] has pIC50 at or above 5?
## Output Fulfilled

* * *

Target: human PF4 (Homo sapiens)
Construct: PF4 is a 70 amino acid, lysine-rich 7.8 kDa platelet-specific protein; made in house; host or cells: Escherichia coli BL21DE3 pLysS (pT7-7) and/or Drosophila S2 cells
Experiment: Inhibition of PF4 tetramer formation (BS3 cross-linking, SDS-PAGE)
Assay type: biochemical
Conditions: 5 μM inhibitor; read-out: % inhibition of PF4 tetramer formation at single concentration of inhibitor
# key: entry, value: inhibition at 5 µM
Write the number in % without appending the unit.

Previously resolved entries follow.
{"columns": ["compound", "target", "obsValue"],
 "data": [
  ["CC(C)(C)OC(=O)N1CCCC[C@H]1C(=O)C1C(=O)c2ccc(-c3ccc4c(c3)C(=O)C(C(=O)[C@@H]3CCCCN3C(=O)OC(C)(C)C)C4=O)cc2C1=O (stereo partly drawn) [Example 212]", "human PF4 (Homo sapiens)", 91],
  ["COc1ccccc1NC(=O)C1C(=O)c2ccc(C(=O)c3ccc4c(c3)C(=O)C(C(=O)Nc3ccccc3OC)C4=O)cc2C1=O (stereo not drawn) [Example 28]", "human PF4 (Homo sapiens)", 82],
  ["COCCC(=O)C1C(=O)c2ccc(S(=O)(=O)c3ccc4c(c3)C(=O)C(C(=O)CCOC)C4=O)cc2C1=O (stereo not drawn) [Example 177]", "human PF4 (Homo sapiens)", 0],
  ["COC(=O)CCCC(=O)C1C(=O)c2ccc(C(=O)c3ccc4c(c3)C(=O)C(C(=O)CCCC(=O)OC)C4=O)cc2C1=O (stereo not drawn) [Example 225]", "human PF4 (Homo sapiens)", 87],
  ["COc1cccc(NC(=O)C2C(=O)c3ccc(C(=O)c4ccc5c(c4)C(=O)C(C(=O)Nc4cccc(OC)c4)C5=O)cc3C2=O)c1 (stereo not drawn) [Example 23]", "human PF4 (Homo sapiens)", 84]
]}

## Input Entry O=C(c1ccc2c(c1)C(=O)C(C(=O)[C@@H]1C[C@H]1C(=O)O)C2=O)c1ccc2c(c1)C(=O)C(C(=O)[C@@H]1C[C@H]1C(=O)O)C2=O (stereo in doubt) [Example 222] : reported inhibition at 5 µM = ?
## Output 94

## Input Entry O=C(c1ccc2c(c1)C(=O)C(C(=O)C1CCN(C(=O)OCc3ccccc3)C1)C2=O)c1ccc2c(c1)C(=O)C(C(=O)C1CCN(C(=O)OCc3ccccc3)C1)C2=O (stereo not drawn) [Example 159] : reported inhibition at 5 µM = ?
## Output 85

## Input Entry O=C(Cc1ccccc1)C1C(=O)c2ccc(S(=O)(=O)c3ccc4c(c3)C(=O)C(C(=O)Cc3ccccc3)C4=O)cc2C1=O (stereo not drawn) [Example 137] : reported inhibition at 5 µM = ?
## Output 80

## Input Entry O=C(c1ccc2c(c1)C(=O)C(C(=O)NCc1ccc(F)cc1)C2=O)c1ccc2c(c1)C(=O)C(C(=O)NCc1ccc(F)cc1)C2=O (stereo not drawn) [Example 26] : reported inhibition at 5 µM = ?
## Output 59

## Input Entry CC(C)(C)OC(=O)N1CCC[C@H]1CC(=O)C1C(=O)c2ccc(C(=O)c3ccc4c(c3)C(=O)C(C(=O)C[C@@H]3CCCN3C(=O)OC(C)(C)C)C4=O)cc2C1=O (stereo in doubt) [Example 112] : reported inhibition at 5 µM = ?
## Output 84

## Input Entry CN1CCC[C@H]1C(=O)C1C(=O)c2ccc(S(=O)(=O)c3ccc4c(c3)C(=O)C(C(=O)[C@@H]3CCCN3C)C4=O)cc2C1=O (stereo partly drawn) [Example 167] : reported inhibition at 5 µM = ?
## Output 18

## Input Entry COC(=O)N1CCC[C@H]1C(=O)C1C(=O)c2ccc(C(=O)c3ccc4c(c3)C(=O)C(C(=O)[C@@H]3CCCN3C(=O)OC)C4=O)cc2C1=O (stereo partly drawn) [Example 114] : reported inhibition at 5 µM = ?
## Output 76

## Input Entry O=C(NCCc1ccccc1)C1C(=O)c2ccc(S(=O)(=O)c3ccc4c(c3)C(=O)C(C(=O)NCCc3ccccc3)C4=O)cc2C1=O (stereo not drawn) [Example 33] : reported inhibition at 5 µM = ?
## Output 67

## Input Entry O=C(c1ccc2c(c1)C(=O)C(C(=O)NCc1ccccc1)C2=O)c1ccc2c(c1)C(=O)C(C(=O)NCc1ccccc1)C2=O (stereo not drawn) [Example 25] : reported inhibition at 5 µM = ?
## Output 63
